target: Recombinant mTOR (FRAP1) (Homo sapiens); construct: purchased Invitrogen; experiment: mTOR in vitro kinase assay (TR-FRET, phosphorylation of GFP-4E-BP1); assay type: biochemical; settings: 1 uM compound; read-out: mTOR % Inhib@1 uM
Sequence (P42345 1360-2549 limits assumed): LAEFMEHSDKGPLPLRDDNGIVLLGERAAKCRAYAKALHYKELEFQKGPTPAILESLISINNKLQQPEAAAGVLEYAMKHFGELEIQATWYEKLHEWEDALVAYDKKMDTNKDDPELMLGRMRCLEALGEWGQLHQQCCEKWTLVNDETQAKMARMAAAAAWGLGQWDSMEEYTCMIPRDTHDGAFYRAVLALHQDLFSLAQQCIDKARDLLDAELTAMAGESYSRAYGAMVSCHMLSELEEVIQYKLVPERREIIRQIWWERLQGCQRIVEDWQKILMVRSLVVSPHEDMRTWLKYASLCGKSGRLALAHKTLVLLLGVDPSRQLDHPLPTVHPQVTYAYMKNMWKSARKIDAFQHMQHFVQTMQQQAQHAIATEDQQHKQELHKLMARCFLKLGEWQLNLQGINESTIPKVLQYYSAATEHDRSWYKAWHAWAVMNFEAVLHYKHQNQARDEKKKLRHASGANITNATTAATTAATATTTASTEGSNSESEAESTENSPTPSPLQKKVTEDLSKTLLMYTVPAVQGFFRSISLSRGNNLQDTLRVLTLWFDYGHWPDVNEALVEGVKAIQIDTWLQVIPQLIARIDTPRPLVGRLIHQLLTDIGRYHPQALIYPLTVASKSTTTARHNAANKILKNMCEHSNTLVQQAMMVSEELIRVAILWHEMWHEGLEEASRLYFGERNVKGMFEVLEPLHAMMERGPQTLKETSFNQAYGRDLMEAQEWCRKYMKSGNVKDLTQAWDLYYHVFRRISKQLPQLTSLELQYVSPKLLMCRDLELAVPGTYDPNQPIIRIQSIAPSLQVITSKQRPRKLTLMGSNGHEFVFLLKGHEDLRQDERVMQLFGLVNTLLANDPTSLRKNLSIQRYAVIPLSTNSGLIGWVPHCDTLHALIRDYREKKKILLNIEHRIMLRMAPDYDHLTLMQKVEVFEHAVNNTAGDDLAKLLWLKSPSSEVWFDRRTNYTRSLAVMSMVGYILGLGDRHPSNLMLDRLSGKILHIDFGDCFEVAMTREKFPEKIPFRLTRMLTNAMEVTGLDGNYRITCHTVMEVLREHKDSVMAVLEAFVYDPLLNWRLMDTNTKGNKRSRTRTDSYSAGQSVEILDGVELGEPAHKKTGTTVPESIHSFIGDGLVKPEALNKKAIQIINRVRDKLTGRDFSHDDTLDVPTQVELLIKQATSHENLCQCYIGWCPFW
PARAMETER: inhibition at 1 µM

Example compounds with recorded inhibition at 1 µM:
• CS(=O)(=O)N1CCC(COc2nc(-c3cnc(N)s3)nc(N3CCOCC3)n2)CC1 [Compound 10194] = < 50%
• CN(C)C(=O)c1ccc(Oc2nc(-c3cnc(N)s3)nc(N3CCCCC3)n2)cc1 [Compound 10119] = < 50%
• CN(C)C(=O)c1ccc(Oc2nc(-c3cnc(N)s3)nc(N3CC4CCC(C3)O4)n2)cc1 [Compound 10075] = > 50%
• CC[C@@H]1COCCN1c1nc(Oc2ccc(C(=O)N(C)C)cc2)nc(-c2cnc(N)s2)n1 [Compound 10082] = < 50%

Q: State its inhibition at 1 µM for this compound: CN(C)C(=O)c1cccc(Oc2nc(-c3cnc(N)s3)nc(N3CCOCC3)n2)c1 [Compound 10195]
Result: < 50%

Q: Tell us which inhibition at 1 µM value is on record for CN(C)C(=O)N1CCC(Oc2nc(-c3ccc(N)nc3)nc(N3CCOCC3)n2)CC1 [Compound 10021]
Result: > 50%

Q: Note down inhibition at 1 µM recorded for CC[C@H]1COCCN1c1nc(Oc2ccc(C(=O)N(C)C)cc2)nc(-c2cnc(N)s2)n1 [Compound 10081]
Result: > 50%

Q: Report measured inhibition at 1 µM; entry is CN(C)C(=O)c1ccc(Oc2nc(-c3ccc(N)nc3)nc(N3[C@@H]4CC[C@H]3COC4)n2)cc1 [Compound 10050]
Result: > 50%

Q: Identify measured inhibition at 1 µM corresponding to CN(C)C(=O)c1ccc(Oc2nc(-c3cnc(N)s3)nc(N3CCS(=O)(=O)CC3)n2)cc1 [Compound 10123]
Result: < 50%

Q: Report inhibition at 1 µM for C[C@H]1COCCN1c1nc(Oc2ccc(C(=O)N(C)C)cc2)nc(-c2cnc(N)nc2)n1 [Compound 10126]
Result: > 50%

Q: Provide inhibition at 1 µM value for the following compound: CN(C)C(=O)N1CCC(Oc2nc(-c3cnc(N)s3)nc(N3CCOCC3)n2)CC1 [Compound 10003]
Result: > 50%

Q: Report measured inhibition at 1 µM; entry is Cc1nc(N)sc1-c1nc(Oc2ccc(C(=O)N(C)C)cc2)nc(N2CCOCC2)n1 [Compound 10199]
Result: < 50%
